- System: N87 (human gastric (stomach) cancer cell line)
- TEST_METHOD_NOTES: 72 hr ATP luminescence proliferation inhibition, N87
- Format: cell-based
- TEST_SETTINGS: Homo sapiens, read-out: Proliferation Inhibition of Cancer Cells EC50, N87
MEASURED_METRIC: pEC50
Numbers only, as −log10 of the molar value.

The following compounds have reported results that may help.
COCCCOc1ccc2[nH]c(C(=O)N3C[C@@H](CCl)c4c3cc(O)c3[nH]c(C(=O)N5CCOCC5)cc43)cc2c1	10.80
NCCOc1ccc2[nH]c(C(=O)N3C[C@@H](CCl)c4c3cc(O)c3[nH]c(C(=O)N5CCOCC5)cc43)cc2c1	7.32
O=C(c1cc2c3c(cc(O)c2[nH]1)N(C(=O)c1cc2cc(OCC4CCCCC4)ccc2[nH]1)C[C@H]3CCl)N1CCOCC1	9.82

Please look at the items below and tell me pEC50 for each one, in order.
1. COCCOc1ccc2[nH]c(C(=O)N3C[C@@H](CCl)c4c3cc(O)c3[nH]c(C(=O)N5CCOCC5)cc43)cc2c1
2. CC(C)COc1ccc2[nH]c(C(=O)N3C[C@@H](CCl)c4c3cc(O)c3[nH]c(C(=O)N5CCOCC5)cc43)cc2c1
3. O=C(c1cc2c3c(cc(O)c2[nH]1)N(C(=O)c1cc2cc(OCC4CC4)ccc2[nH]1)C[C@H]3CCl)N1CCOCC1
4. CN(C)CCOc1ccc2[nH]c(C(=O)N3C[C@@H](CCl)c4c3cc(O)c3[nH]c(C(=O)N5CCOCC5)cc43)cc2c1
5. O=C(c1cc2c3c(cc(O)c2[nH]1)N(C(=O)c1cc2cc(OC4CCCC4)ccc2[nH]1)C[C@H]3CCl)N1CCOCC1
6. O=C(c1cc2c3c(cc(O)c2[nH]1)N(C(=O)c1cc2cc(-c4ccccc4)ccc2[nH]1)C[C@H]3CCl)N1CCOCC1
7. Nc1ccc2[nH]c(C(=O)N3C[C@@H](CCl)c4c3cc(O)c3[nH]c(C(=O)N5CCOCC5)cc43)cc2c1

Result:
1: 11.15; 2: 9.68; 3: 9.82; 4: 9.30; 5: 9.49; 6: 8.89; 7: 8.51

Please look at the items below and tell me pEC50 for each one, in order.
1. O=C(c1cc2c3c(cc(O)c2[nH]1)N(C(=O)c1cc2cc(OCCC4CC4)ccc2[nH]1)C[C@H]3CCl)N1CCOCC1
2. O=C(c1cc2c3c(cc(O)c2[nH]1)N(C(=O)c1cc2cc(OC4CCOCC4)ccc2[nH]1)C[C@H]3CCl)N1CCOCC1
3. Nc1ccc(C(=O)Nc2ccc3[nH]c(C(=O)N4C[C@@H](CCl)c5c4cc(O)c4[nH]c(C(=O)N6CCOCC6)cc54)cc3c2)cc1
4. CCCOc1ccc2[nH]c(C(=O)N3C[C@@H](CCl)c4c3cc(O)c3[nH]c(C(=O)N5CCOCC5)cc43)cc2c1

Result:
1. 9.09
2. 9.44
3. 8.85
4. 10.32
